# IC50 listing for each entry below
- tgt: UniProtKB Q13464
- Sequence (Q13464 whole entry): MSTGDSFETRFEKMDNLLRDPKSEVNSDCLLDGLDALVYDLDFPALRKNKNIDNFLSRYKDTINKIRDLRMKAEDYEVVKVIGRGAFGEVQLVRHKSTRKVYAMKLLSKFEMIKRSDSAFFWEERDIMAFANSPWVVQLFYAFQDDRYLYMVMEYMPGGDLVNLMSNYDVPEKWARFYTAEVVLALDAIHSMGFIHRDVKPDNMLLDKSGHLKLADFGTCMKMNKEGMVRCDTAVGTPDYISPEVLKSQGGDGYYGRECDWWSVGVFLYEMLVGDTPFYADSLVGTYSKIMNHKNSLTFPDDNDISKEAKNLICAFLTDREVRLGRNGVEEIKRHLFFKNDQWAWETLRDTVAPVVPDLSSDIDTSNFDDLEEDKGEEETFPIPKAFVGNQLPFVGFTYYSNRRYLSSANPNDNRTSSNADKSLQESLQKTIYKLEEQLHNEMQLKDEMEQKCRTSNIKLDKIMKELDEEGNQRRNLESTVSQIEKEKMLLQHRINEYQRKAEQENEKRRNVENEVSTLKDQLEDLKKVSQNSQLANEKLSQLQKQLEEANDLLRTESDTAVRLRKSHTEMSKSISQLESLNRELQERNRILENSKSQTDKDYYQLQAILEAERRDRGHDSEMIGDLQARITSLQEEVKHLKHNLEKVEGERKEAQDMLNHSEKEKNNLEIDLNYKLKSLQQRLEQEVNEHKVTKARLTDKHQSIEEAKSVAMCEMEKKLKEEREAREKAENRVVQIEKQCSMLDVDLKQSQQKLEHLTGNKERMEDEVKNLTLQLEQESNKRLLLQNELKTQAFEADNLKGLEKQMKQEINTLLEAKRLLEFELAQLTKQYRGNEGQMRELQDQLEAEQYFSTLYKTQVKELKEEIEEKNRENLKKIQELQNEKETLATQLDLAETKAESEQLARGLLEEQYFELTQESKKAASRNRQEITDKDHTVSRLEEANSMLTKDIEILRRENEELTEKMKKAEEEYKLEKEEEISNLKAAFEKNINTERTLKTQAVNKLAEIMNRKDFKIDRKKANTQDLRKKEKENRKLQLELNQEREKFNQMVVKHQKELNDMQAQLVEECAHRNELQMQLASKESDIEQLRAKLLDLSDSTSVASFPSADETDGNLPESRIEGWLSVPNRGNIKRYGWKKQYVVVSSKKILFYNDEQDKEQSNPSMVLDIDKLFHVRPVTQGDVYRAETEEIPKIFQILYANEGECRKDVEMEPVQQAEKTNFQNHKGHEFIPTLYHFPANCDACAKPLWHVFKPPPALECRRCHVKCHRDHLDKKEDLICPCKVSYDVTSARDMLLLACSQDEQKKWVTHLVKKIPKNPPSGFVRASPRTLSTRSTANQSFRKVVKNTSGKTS
- assay_protocol: Inhibition of ROCK1
Response body: numeric value in nM, unit text excluded.

# count of solved cases: 2
{"compound": "CN(C)CCCNC(=O)c1ccc2c(c1)CC(c1nc3ccc(-c4cn[nH]c4)cc3s1)CO2 (stereo not drawn)", "endpoint_name": "IC50", "observed_result": 2}
{"compound": "COc1cccc(CN(CCN(C)C)C(=O)c2nc3ccc(-c4cn[nH]c4)cc3s2)c1", "endpoint_name": "IC50", "observed_result": 3.5}

Okay, next one:
input: # IC50 lookup, item CCN(Cc1cccc(OC)c1)C(=O)c1nc2ccc(-c3cn[nH]c3)cc2s1
output: 180

###

- assay_protocol: Clearance in rat
- Assay type: ADME, organism-based
- details: in vivo
endpoint_name: clearance
Form field: result (number plus unit)

input: # clearance lookup, item COc1cccc(CN(CCN(C)C)C(=O)c2nc3ccc(-c4cn[nH]c4)cc3s2)c1
output: 50 mL/min/kg

###

- tgt: UniProt O75116
- assay_protocol: Inhibition of ROCK2
pIC50: −log10 of the molar value.
Kind request: treat 8 as inclusive, so pIC50 at 8 or higher is TRUE, anything lower is FALSE.

// known answers, use as guide
{"compound": "Fc1cc2nc(C3COc4ccccc4C3)sc2cc1-c1cn[nH]c1 (configuration not stated)", "label_value": "FALSE"}
{"compound": "COc1cccc(CNC(=O)c2nc3ccc(-c4cn[nH]c4)cc3s2)c1", "label_value": "FALSE"}

input: Form field: pIC50 at least 8? Entry: c1ccc2c(c1)CC(c1nc3ccc(-c4ccncc4)cc3s1)CO2 (configuration not stated)
output: FALSE

input: Further, for COc1cccc(CN(CCN(C)C)C(=O)c2nc3ccc(-c4cn[nH]c4)cc3s2)c1 ?
output: TRUE

###

- assay_protocol: Metabolic stability in rat liver microsomes assessed as half life
- Format: ADME, Microsome
endpoint_name: half-life
Form field: result (number plus unit)

input: # half-life lookup, item Nc1nccc(-c2ccc3nc(C4COc5ccccc5C4)sc3c2)n1 (stereo unspecified)
output: 23 min

###

- tgt: Rho-associated protein kinase 2 (Homo sapiens)
- Sequence (O75116 whole entry): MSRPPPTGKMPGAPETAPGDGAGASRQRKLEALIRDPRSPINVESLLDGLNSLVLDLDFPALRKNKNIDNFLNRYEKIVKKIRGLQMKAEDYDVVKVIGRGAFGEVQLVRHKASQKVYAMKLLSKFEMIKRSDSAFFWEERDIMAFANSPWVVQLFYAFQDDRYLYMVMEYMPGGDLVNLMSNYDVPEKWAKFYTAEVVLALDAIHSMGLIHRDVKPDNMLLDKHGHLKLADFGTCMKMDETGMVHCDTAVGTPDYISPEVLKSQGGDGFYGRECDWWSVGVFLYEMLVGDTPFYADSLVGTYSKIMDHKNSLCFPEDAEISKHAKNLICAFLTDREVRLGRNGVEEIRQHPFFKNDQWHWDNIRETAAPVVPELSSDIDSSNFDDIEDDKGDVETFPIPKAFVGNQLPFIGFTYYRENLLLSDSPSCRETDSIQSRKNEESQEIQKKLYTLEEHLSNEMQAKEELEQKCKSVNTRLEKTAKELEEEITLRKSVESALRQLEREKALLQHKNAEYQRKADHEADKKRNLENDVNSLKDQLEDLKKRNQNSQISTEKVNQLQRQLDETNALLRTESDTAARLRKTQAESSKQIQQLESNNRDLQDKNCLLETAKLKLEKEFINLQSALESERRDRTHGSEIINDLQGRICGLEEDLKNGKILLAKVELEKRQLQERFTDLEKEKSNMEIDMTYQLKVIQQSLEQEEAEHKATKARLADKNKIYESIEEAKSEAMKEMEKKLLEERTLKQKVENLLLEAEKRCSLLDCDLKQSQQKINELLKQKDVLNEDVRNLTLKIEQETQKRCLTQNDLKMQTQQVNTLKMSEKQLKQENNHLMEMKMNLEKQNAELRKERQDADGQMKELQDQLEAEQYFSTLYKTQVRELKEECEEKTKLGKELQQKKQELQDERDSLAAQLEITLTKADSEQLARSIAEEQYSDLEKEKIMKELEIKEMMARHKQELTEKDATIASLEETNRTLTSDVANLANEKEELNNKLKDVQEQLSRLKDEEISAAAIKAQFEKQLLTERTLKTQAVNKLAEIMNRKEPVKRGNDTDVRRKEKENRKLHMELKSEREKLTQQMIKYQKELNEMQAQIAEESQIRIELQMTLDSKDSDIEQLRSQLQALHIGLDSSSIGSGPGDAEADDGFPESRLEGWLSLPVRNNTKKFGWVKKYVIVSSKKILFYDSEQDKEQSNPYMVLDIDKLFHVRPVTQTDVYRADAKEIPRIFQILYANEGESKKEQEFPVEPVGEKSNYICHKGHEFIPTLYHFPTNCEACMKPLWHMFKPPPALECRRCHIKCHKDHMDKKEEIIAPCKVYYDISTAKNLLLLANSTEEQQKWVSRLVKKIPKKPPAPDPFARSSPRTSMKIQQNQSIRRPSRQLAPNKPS
- assay_protocol: Inhibition of ROCK2
# log10 IC50 listing for each entry below
Values reflect log10 of reported IC50 (nM).

{"molecule": "Cc1ccc2c(c1)CC(c1nc3ccc(-c4cn[nH]c4)cc3s1)CO2 (stereo not given)", "tgt": "Rho-associated protein kinase 2 (Homo sapiens)", "log10 IC50": 1.97}
{"molecule": "CCN(Cc1cccc(OC)c1)C(=O)c1nc2ccc(-c3cn[nH]c3)cc2s1", "tgt": "Rho-associated protein kinase 2 (Homo sapiens)", "log10 IC50": 1.41}
{"molecule": "COc1cccc(CN(C)C(=O)c2nc3ccc(-c4cn[nH]c4)cc3s2)c1", "tgt": "Rho-associated protein kinase 2 (Homo sapiens)", "log10 IC50": 1.77}
{"molecule": "CN(C)CCOc1cc(-c2cn[nH]c2)cc2sc(C3COc4ccccc4C3)nc12 (stereo not given)", "tgt": "Rho-associated protein kinase 2 (Homo sapiens)", "log10 IC50": 1.82}
{"molecule": "c1ccc2c(c1)CC(c1nc3c(OCCN4CCOCC4)cc(-c4cn[nH]c4)cc3s1)CO2 (stereo not given)", "tgt": "Rho-associated protein kinase 2 (Homo sapiens)", "log10 IC50": 2.50}

input: # log10 IC50 lookup, item CN(C)CCCNC(=O)c1ccc2c(c1)CC(c1nc3ccc(-c4cn[nH]c4)cc3s1)CO2 (stereo not given)
output: -0.05

input: Further, for c1ccc2c(c1)CC(c1nc3ccc(-c4cn[nH]c4)cc3s1)CO2 (stereo not given) ?
output: 1.04

###

- tgt: Serine/threonine-protein kinase MRCK alpha (Homo sapiens, UniProt Q5VT25)
- Sequence (Q5VT25 whole entry): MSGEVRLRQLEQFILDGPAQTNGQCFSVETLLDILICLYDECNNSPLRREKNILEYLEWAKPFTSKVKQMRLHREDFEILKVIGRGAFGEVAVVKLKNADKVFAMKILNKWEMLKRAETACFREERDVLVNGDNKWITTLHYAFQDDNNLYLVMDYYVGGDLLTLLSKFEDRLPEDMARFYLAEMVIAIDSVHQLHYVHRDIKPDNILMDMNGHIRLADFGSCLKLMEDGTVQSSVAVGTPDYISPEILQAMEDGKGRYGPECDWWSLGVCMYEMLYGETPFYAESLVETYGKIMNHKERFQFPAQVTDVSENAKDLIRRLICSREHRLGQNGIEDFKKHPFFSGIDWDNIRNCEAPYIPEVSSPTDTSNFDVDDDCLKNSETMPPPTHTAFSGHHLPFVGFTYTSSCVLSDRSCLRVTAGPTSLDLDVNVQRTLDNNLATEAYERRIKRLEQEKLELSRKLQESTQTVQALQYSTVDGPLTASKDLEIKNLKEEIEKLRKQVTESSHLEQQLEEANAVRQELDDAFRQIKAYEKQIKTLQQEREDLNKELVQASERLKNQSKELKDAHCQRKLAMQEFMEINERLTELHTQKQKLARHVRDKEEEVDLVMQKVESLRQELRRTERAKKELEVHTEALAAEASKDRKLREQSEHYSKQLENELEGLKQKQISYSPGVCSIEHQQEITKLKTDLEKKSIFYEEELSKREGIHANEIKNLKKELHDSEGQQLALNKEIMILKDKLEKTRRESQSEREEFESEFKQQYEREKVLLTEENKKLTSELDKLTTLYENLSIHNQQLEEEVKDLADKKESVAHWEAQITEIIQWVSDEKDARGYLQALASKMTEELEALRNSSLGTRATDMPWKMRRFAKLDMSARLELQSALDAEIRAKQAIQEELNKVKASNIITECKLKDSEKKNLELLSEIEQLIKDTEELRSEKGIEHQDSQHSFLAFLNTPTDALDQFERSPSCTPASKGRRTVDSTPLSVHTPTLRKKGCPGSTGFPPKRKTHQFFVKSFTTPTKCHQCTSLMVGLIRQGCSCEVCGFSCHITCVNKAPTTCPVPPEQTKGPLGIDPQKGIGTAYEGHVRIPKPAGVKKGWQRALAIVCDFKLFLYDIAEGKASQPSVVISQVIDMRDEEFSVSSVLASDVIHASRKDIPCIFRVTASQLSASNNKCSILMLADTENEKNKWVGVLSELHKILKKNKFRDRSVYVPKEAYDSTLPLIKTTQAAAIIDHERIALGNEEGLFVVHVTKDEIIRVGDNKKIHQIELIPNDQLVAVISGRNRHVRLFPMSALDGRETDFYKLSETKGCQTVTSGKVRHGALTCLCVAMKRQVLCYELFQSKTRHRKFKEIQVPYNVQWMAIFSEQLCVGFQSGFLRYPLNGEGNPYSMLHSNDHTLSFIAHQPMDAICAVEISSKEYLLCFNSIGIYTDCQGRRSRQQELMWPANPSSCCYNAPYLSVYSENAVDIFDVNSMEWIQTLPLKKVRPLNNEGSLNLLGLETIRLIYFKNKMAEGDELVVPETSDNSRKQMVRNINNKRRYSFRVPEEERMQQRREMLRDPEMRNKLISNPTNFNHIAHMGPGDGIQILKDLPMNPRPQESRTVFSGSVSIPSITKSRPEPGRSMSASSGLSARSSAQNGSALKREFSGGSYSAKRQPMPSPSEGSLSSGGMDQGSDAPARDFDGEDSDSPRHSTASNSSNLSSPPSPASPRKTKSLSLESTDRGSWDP
endpoint_name: pIC50
Keep it numeric: pIC50 is minus log10 of the concentration in mol/L.

{"compound": "CN(C)CCCNC(=O)c1ccc2c(c1)CC(c1nc3ccc(-c4cn[nH]c4)cc3s1)CO2 (stereo not drawn)", "tgt": "Serine/threonine-protein kinase MRCK alpha (Homo sapiens, UniProt Q5VT25)", "pIC50": 5.02}
{"compound": "COc1cccc(CN(CCN(C)C)C(=O)c2nc3ccc(-c4cn[nH]c4)cc3s2)c1", "tgt": "Serine/threonine-protein kinase MRCK alpha (Homo sapiens, UniProt Q5VT25)", "pIC50": 6.61}

input: # pIC50 lookup, item CCN(Cc1cccc(OC)c1)C(=O)c1nc2ccc(-c3cn[nH]c3)cc2s1
output: 5.10

###

- tgt: UniProt O75116
- assay_protocol: Inhibition of ROCK2
# pIC50 listing for each entry below
Keep it numeric: pIC50 is minus log10 of the concentration in mol/L.

# count of solved cases: 5
{"compound": "O=C(NCc1ccccc1)c1nc2ccc(-c3cn[nH]c3)cc2s1", "tgt": "UniProt O75116", "pIC50": 7.28}
{"compound": "Cc1cc(-c2ccc3nc(C4COc5ccccc5C4)sc3c2)ccn1 (stereo not given)", "tgt": "UniProt O75116", "pIC50": 5.92}
{"compound": "Cc1n[nH]cc1-c1ccc2nc(C3COc4ccccc4C3)sc2c1 (stereo not given)", "tgt": "UniProt O75116", "pIC50": 7.60}
{"compound": "O=C(NCc1cccc(F)c1)c1nc2ccc(-c3cn[nH]c3)cc2s1", "tgt": "UniProt O75116", "pIC50": 7.14}
{"compound": "COC(=O)c1ccc2c(c1)CC(c1nc3ccc(-c4cn[nH]c4)cc3s1)CO2 (stereo not given)", "tgt": "UniProt O75116", "pIC50": 7.23}

input: Query the reported pIC50 for UniProt O75116; item: c1ccc2c(c1)CC(c1nc3c(OCCC4CCOC4)cc(-c4cn[nH]c4)cc3s1)CO2 (stereo not given)
output: 6.30

input: Further, for COc1cc(-c2cn[nH]c2)cc2sc(C3COc4ccccc4C3)nc12 (stereo not given) ?
output: 7.49

input: Further, for COc1ccc2c(c1)CC(c1nc3ccc(-c4cn[nH]c4)cc3s1)CO2 (stereo not given) ?
output: 7.35

input: Further, for CN(C)CCN(C)c1cc(-c2cn[nH]c2)cc2sc(C3COc4ccccc4C3)nc12 (stereo not given) ?
output: 7.29

input: Further, for Fc1ccc2c(c1)CC(c1nc3ccc(-c4cn[nH]c4)cc3s1)CO2 (stereo not given) ?
output: 7.42

###

Record type: IC50 measurement. Applies to: Rho-associated protein kinase 2 (Homo sapiens)
Response body: numeric value in µM, unit text excluded.

{"molecule": "CN(C)CCOc1cc(-c2cn[nH]c2)cc2sc(C3COc4ccccc4C3)nc12 (stereo not given)", "tgt": "Rho-associated protein kinase 2 (Homo sapiens)", "endpoint_name": "IC50", "observed_result": 0.365}
{"molecule": "CN(C)CCNC(=O)c1ccc2c(c1)CC(c1nc3ccc(-c4cn[nH]c4)cc3s1)CO2 (stereo not given)", "tgt": "Rho-associated protein kinase 2 (Homo sapiens)", "endpoint_name": "IC50", "observed_result": 0.02}

input: # IC50 lookup, item COC(=O)c1ccc2c(c1)CC(c1nc3ccc(-c4cn[nH]c4)cc3s1)CO2 (stereo not given)
output: 1.48

input: Further, for CCN(Cc1cccc(OC)c1)C(=O)c1nc2ccc(-c3cn[nH]c3)cc2s1 ?
output: 0.455

input: Further, for Fc1ccc2c(c1)CC(c1nc3ccc(-c4cn[nH]c4)cc3s1)CO2 (stereo not given) ?
output: 1.48

input: Further, for COc1cc(-c2cn[nH]c2)cc2sc(C3COc4ccccc4C3)nc12 (stereo not given) ?
output: 1.24

###

Record type: IC50 measurement. Applies to: Rho-associated protein kinase 2 (Homo sapiens, UniProt O75116)

# count of solved cases: 2
{"molecule": "COc1ccc2c(c1)CC(c1nc3ccc(-c4cn[nH]c4)cc3s1)CO2 (stereo unspecified)", "IC50": "> 2700 nM"}
{"molecule": "CN(C)CCN(C)c1cc(-c2cn[nH]c2)cc2sc(C3COc4ccccc4C3)nc12 (stereo unspecified)", "IC50": "365 nM"}

input: # IC50 lookup, item Nc1nccc(-c2ccc3nc(C4COc5ccccc5C4)sc3c2)n1 (stereo unspecified)
output: 1500 nM

input: Further, for c1ccc2c(c1)CC(c1nc3ccc(-c4cn[nH]c4)cc3s1)CO2 (stereo unspecified) ?
output: 1550 nM

input: Further, for COc1cccc(CN(CCN(C)C)C(=O)c2nc3ccc(-c4cn[nH]c4)cc3s2)c1 ?
output: < 6 nM

input: Further, for COCCN(Cc1cccc(OC)c1)C(=O)c1nc2ccc(-c3cn[nH]c3)cc2s1 ?
output: 871 nM

###

- assay_protocol: Selectivity for ROCK2 over PKA
Kind request: treat 40 as inclusive, so Selectivity ratio at 40 or higher is 1.0, anything lower is 0.0.

// known answers, use as guide
{"compound": "c1ccc2c(c1)CC(c1nc3ccc(-c4ccncc4)cc3s1)CO2 (stereo not given)", "label_value": 0.0}
{"compound": "CN(C)CCOc1cc(-c2cn[nH]c2)cc2sc(C3COc4ccccc4C3)nc12 (stereo not given)", "label_value": 1.0}
{"compound": "CN(C)CCCNC(=O)c1ccc2c(c1)CC(c1nc3ccc(-c4cn[nH]c4)cc3s1)CO2 (stereo not given)", "label_value": 1.0}
{"compound": "Fc1cc(-c2cn[nH]c2)cc2sc(C3COc4ccccc4C3)nc12 (stereo not given)", "label_value": 1.0}

input: Form field: Selectivity ratio at least 40? Entry: COc1cccc(CNC(=O)c2nc3ccc(-c4cn[nH]c4)cc3s2)c1
output: 1.0

input: Further, for CN(C)CCN(C)c1cc(-c2cn[nH]c2)cc2sc(C3COc4ccccc4C3)nc12 (stereo not given) ?
output: 0.0

input: Further, for c1ccc2c(c1)CC(c1nc3ccc(-c4cn[nH]c4)cc3s1)CO2 (stereo not given) ?
output: 0.0

input: Further, for CN(C)CCNC(=O)c1ccc2c(c1)CC(c1nc3ccc(-c4cn[nH]c4)cc3s1)CO2 (stereo not given) ?
output: 1.0

input: Further, for Nc1nccc(-c2ccc3nc(C4COc5ccccc5C4)sc3c2)n1 (stereo not given) ?
output: 0.0

input: Further, for COc1cccc(CN(CCN(C)C)C(=O)c2nc3ccc(-c4cn[nH]c4)cc3s2)c1 ?
output: 1.0
